# method_description: Solubility of selected FT4 and FT5 compounds in organic solvents (10 mg compound, stepwise 5 mL solvent additions, ultrasonic bath)
# Assay type: physicochemical
# recorded_conditions: CH2Cl2, organic solvent or mixture, thermodynamic from solid, 10 mg compound in 5 mL CH2Cl2, ambient temperature; read-out: Solubility CH2Cl2
# Procedure: Solubility of Selected FT4 And FT5 Compounds Table 1 provides a solubility comparison of some α-, α′-unsubstituted, β-, β′-alkyl substituted FT4 (and FT5), with some α-, α′-substituted, β-, β′-alkyl substituted FT4 (and FT5) compounds. General Procedure: 10 mg of a FT4 or FT5 compound was mixed with 5.0 mL of a specified solvent and then sealed in a screw-top glass vial. […]
Documented solubility at 60 min across a set of molecules

Examples with answers:
CCCCCCCCCCCCCc1c(-c2cccs2)sc2c1sc1c3sc(-c4cccs4)c(CCCCCCCCCCCCC)c3sc21; > 500 µg/mL
CCCCCCCCCCCCCc1csc2c1sc1c2sc2c3scc(CCCCCCCCCCCCC)c3sc21; < 2000 µg/mL
CCCCCCCCCCCCCCCCCc1csc2c1sc1c3scc(CCCCCCCCCCCCCCCCC)c3sc21; < 2000 µg/mL
CCCCCCCCCCCCCCCCCc1c(-c2cccs2)sc2c1sc1c3sc(-c4cccs4)c(CCCCCCCCCCCCCCCCC)c3sc21; < 2000 µg/mL
CCCCCCCCCCCCCc1c(-c2ccccc2)sc2c1sc1c2sc2c3sc(-c4ccccc4)c(CCCCCCCCCCCCC)c3sc21; > 500 µg/mL

Q. # solubility at 60 min lookup, item `CCCCCCCCCCCCCc1csc2c1sc1c3scc(CCCCCCCCCCCCC)c3sc21`
A. < 2000 µg/mL

Q. What does the record list as solubility at 60 min for `CCCCCCCCCCCCCc1c(-c2ccccc2)sc2c1sc1c3sc(-c4ccccc4)c(CCCCCCCCCCCCC)c3sc21` ?
A. < 2000 µg/mL

Q. Using the record for `CCCCCCCCCCCCCc1c(-c2cccs2)sc2c1sc1c2sc2c3sc(-c4cccs4)c(CCCCCCCCCCCCC)c3sc21` , report its solubility at 60 min.
A. > 500 µg/mL

Q. Which solubility at 60 min is listed for `CCCCCCCCCCCCCCCCCc1c(-c2ccccc2)sc2c1sc1c3sc(-c4ccccc4)c(CCCCCCCCCCCCCCCCC)c3sc21` ?
A. < 2000 µg/mL

---

Items are presented alongside their recorded solubility at 60 min.
# method_description: Solubility of selected FT4 and FT5 compounds in organic solvents (10 mg compound, stepwise 5 mL solvent additions, ultrasonic bath)
# Assay type: physicochemical
# recorded_conditions: CH2Cl2, organic solvent or mixture, thermodynamic from solid, 10 mg compound in 10 mL CH2Cl2, ambient temperature; read-out: Solubility CH2Cl2

Worked cases, answers included:
CCCCCCCCCCCCCCCCCc1c(-c2ccccc2)sc2c1sc1c3sc(-c4ccccc4)c(CCCCCCCCCCCCCCCCC)c3sc21; < 2000 µg/mL
CCCCCCCCCCCCCc1csc2c1sc1c3scc(CCCCCCCCCCCCC)c3sc21; > 500 µg/mL
CCCCCCCCCCCCCCCCCc1c(-c2cccs2)sc2c1sc1c3sc(-c4cccs4)c(CCCCCCCCCCCCCCCCC)c3sc21; < 2000 µg/mL
CCCCCCCCCCCCCc1c(-c2ccccc2)sc2c1sc1c3sc(-c4ccccc4)c(CCCCCCCCCCCCC)c3sc21; > 500 µg/mL
CCCCCCCCCCCCCc1csc2c1sc1c2sc2c3scc(CCCCCCCCCCCCC)c3sc21; > 500 µg/mL

Now take the following molecule into account.
Q. For the molecule shown here, `CCCCCCCCCCCCCCCCCc1csc2c1sc1c3scc(CCCCCCCCCCCCCCCCC)c3sc21` , give the reported solubility at 60 min.
A. < 2000 µg/mL

Ref: patent US7919634B2
